- measurement notes: Inhibition of rat plasma secretory SMase
- Format: cell-free
value kind: IC50 (nM)
Could you give me the number in nM? Just the number is fine.

### Prompt # get_value(readout='IC50', item= COc1cc([C@H]2Oc3cc(O)cc(O)c3C[C@H]2OC(=O)c2cc(O)c(O)c(O)c2)cc(O)c1O )
### Response 1700

###

- tested target: Ceramide synthase 5 (Mus musculus, UniProt Q9D6K9)
- Sequence (Q9D6K9 whole entry): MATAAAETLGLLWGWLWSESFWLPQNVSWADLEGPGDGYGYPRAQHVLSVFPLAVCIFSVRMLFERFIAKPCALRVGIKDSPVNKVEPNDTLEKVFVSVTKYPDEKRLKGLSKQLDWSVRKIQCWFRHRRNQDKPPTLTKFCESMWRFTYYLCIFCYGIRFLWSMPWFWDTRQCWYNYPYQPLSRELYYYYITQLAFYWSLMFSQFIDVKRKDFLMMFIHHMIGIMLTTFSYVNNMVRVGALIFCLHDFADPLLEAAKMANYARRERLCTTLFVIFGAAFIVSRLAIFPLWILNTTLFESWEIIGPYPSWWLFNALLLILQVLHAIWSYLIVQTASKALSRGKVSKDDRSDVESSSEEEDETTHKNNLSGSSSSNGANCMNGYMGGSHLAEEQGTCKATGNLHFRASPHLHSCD
- measurement notes: Inhibition of mouse CerS5
value kind: IC50 (µM)
Could you give me the number in µM? Just the number is fine.

### Prompt # get_value(readout='IC50', item= C[C@@](N)(CO)CCc1ccc(OCc2ccc(Cl)c(Cl)c2)cc1 )
### Response 7
